- System: Escherichia coli TOP10
- EXPERIMENT_NOTES: shrunken log2 fold change of peptide-encoding DNA abundance (4.5 h post-induction vs induction); higher = less antimicrobial activity (less host growth inhibition)
- CONDITION_DETAILS: time post-induction: 4.5 h; library: site-saturation at positions 5, 18, 19, 20
ASSAY_ENDPOINT: shrunken log2 fold change

Completed entries (count: 5):
RRIRWRPPRLPRPRPRPEWDPRP | 1.22
RRIRMRPPRLPRPRPRPLDSPRP | 0.204
RRIRKRPPRLPRPRPRPPFPPRP | 0.582
RRIRWRPPRLPRPRPRPDMPPRP | 0.325
RRIRCRPPRLPRPRPRPKPQPRP | 0.324

Name the reported shrunken log2 fold change value associated with the sequence RRIRDRPPRLPRPRPRPRCRPRP
-0.0929

And for RRIRHRPPRLPRPRPRPIEYPRP ?
-0.129

And for RRIRARPPRLPRPRPRPDRKPRP ?
0.0521

And for RRIRSRPPRLPRPRPRPVHAPRP ?
0.214

And for RRIRFRPPRLPRPRPRPAPTPRP ?
0.912

And for RRIRVRPPRLPRPRPRPHKLPRP ?
-0.317

And for RRIRMRPPRLPRPRPRPIIFPRP ?
-0.0918

====

- Tested on: Escherichia coli TOP10
- EXPERIMENT_NOTES: shrunken log2 fold change of peptide-encoding DNA abundance (4.5 h post-induction vs induction); higher = less antimicrobial activity (less host growth inhibition)
- CONDITION_DETAILS: time post-induction: 4.5 h; library: site-saturation at positions 5, 18, 19, 20
Returns one of TRUE or FALSE; TRUE when shrunken log2 fold change is >= -0.05.

Solved entries:
RRIRKRPPRLPRPRPRPVFRPRP | TRUE
RRIRIRPPRLPRPRPRPAMGPRP | TRUE

Is it the case that RRIRLRPPRLPRPRPRPPERPRP has shrunken log2 fold change reaching or exceeding -0.05?
TRUE

And for RRIRCRPPRLPRPRPRPWDDPRP ?
TRUE

And for RRIRCRPPRLPRPRPRPHYFPRP ?
FALSE

And for RRIRPRPPRLPRPRPRPKAKPRP ?
TRUE

And for RRIRYRPPRLPRPRPRPRPNPRP ?
FALSE

And for RRIRWRPPRLPRPRPRPGYKPRP ?
FALSE

And for RRIRARPPRLPRPRPRPYNGPRP ?
TRUE

And for RRIRCRPPRLPRPRPRPMRVPRP ?
TRUE

And for RRIRIRPPRLPRPRPRPQGMPRP ?
FALSE

And for RRIRPRPPRLPRPRPRPFKAPRP ?
FALSE

And for RRIRDRPPRLPRPRPRPAHRPRP ?
FALSE

And for RRIRPRPPRLPRPRPRPQFFPRP ?
TRUE

====

- Test system: Escherichia coli TOP10;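 also: peptides expressed intracellularly from a pBAD plasmid library in pooled LB shake-flask culture, induced with 0.3% L-arabinose, DNA abundance read by NGS, three biological replicates, DESeq2 with apeglm shrinkage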
- EXPERIMENT_NOTES: shrunken log2 fold change of peptide-encoding DNA abundance (4.5 h post-induction vs induction); higher = less antimicrobial activity (less host growth inhibition)
- CONDITION_DETAILS: time post-induction: 4.5 h; library: site-saturation at positions 5, 18, 19, 20
Returns one of t or f; t when shrunken log2 fold change is >= -0.07.

Solved entries:
RRIRQRPPRLPRPRPRPKFLPRP | f
RRIRHRPPRLPRPRPRPSETPRP | t
RRIRTRPPRLPRPRPRPKAMPRP | t

Is it the case that RRIRERPPRLPRPRPRPMWNPRP has shrunken log2 fold change reaching or exceeding -0.07?
t

And for RRIRNRPPRLPRPRPRPTNQPRP ?
f

And for RRIRGRPPRLPRPRPRPCNHPRP ?
f
